# Tested on: HL-60
# Assay Explanation: Cytotoxicity against human HL60 cells after 72 hrs […]
# Type: functional, cell-based
# Condition Info: HL-60, 72 h
Measured Attribute: IC50 (nM)

{"Given Smiles": "Cc1cc(NC(=O)C(=O)c2cc(Cc3ccc(C#N)cc3)n3ccccc23)sn1", "System Name": "HL-60", "Measured Attribute": "IC50", "Val": 50}
